Reference source: PubChem BioAssay (Tox21)

Assay: qHTS assay to identify small molecule agonists of the AP-1 signaling pathway (AID 1159526)
Details: ME-180 (cervical carcinoma) AP-1-bla reporter, beta-lactamase FRET ratio, 5 h; series mostly up to 76.8 µM
Records with an inconclusive call do not appear. Calls of active or inactive are those of the source. Calls come from the whole dose curve.
quantity: activation

- molecule: "COC(=O)c1ccccc1C"
  result: "inactive"
- molecule: "COC(=O)c1ccccc1OC"
  result: "inactive"
- molecule: "NC(=O)c1cccc([N+](=O)[O-])c1"
  result: "inactive"
- molecule: "CCCC(=O)OCOC(=O)C1=C(C)NC(C)=C(C(=O)OC)C1c1cccc(Cl)c1Cl (configuration not stated)"
  result: "inactive"
- molecule: "O=[N+]([O-])c1ccc(F)c(Cl)c1"
  result: "inactive"
- molecule: "OC1CCC(C2CCCCC2)CC1 (configuration not stated)"
  result: "inactive"
- molecule: "CC(C)NC[C@@H](O)COc1ccc(CC(N)=O)cc1"
  result: "inactive"
